PROCEDURE_TEXT: VP16 counterscreen qHTS for inhibitors of ROR gamma transcriptional activity;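 further: Gal4-VP16 expression switched on by copper sulfate through the metallothionein promoter; nearly all actives have a fitted effect of over 50% in size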
CONDITION_DETAILS: Drosophila S2 Gal4-VP16 UAS-luciferase, luminescence, 20 h; series mostly up to 53.6 µM
Among all 310,000 compounds or so, about 11,000 (3.5%) were called active. About 8% were inconclusive and are not listed. The call rests on the fitted dose curve; in most records, active means well fitted inhibition curve with a large enough effect; inconclusive means small, poorly fitted or top-dose-only effect, or effect the other way; inactive means flat fitted curve, though single readings scatter. Many of the other results were omitted from the sample, so actives are more common in it than they were.
Outcome codes: Y (active), N (inactive)

COMPOUND | CATEGORY
CCOC(=O)c1c(C)nc(-c2ccccc2)nc1NC(=O)C(C)C | N
C#CC(C)(C)NC(=O)c1cnc(-c2ccccc2)nc1-c1ccccc1 | N
C=C(C(C)=O)C(O)c1cccs1 (stereo not drawn) | N
CCCOC(=O)Nc1sc2c(c1C(=O)OCC)CCC2 | N
CCOC(=O)c1c(NC(=O)c2ccc(Br)o2)sc2c1CCCC2 | N
CCOc1ccc(NC(=O)c2nc(SCC)ncc2Cl)cc1 | N
CCOC(=O)C1CCCN(S(=O)(=O)c2ccc(-n3cnnn3)c(C)c2)C1 (stereo not drawn) | N
O=c1c2cc([N+](=O)[O-])ccc2nc2n1CCC2 | N
CC(=O)c1c(C)[nH]c(=S)c(C#N)c1-c1ccc(F)cc1 | N
CCOc1ccc(-c2noc(CCC(=O)NC3CCCC3)n2)cc1OC | N
CCOC(=O)c1c(NC(=S)Nc2ccccc2C)sc2c1CCC2 | Y
CCS(=O)(=O)N1Cc2ccccc2CC1C(=O)Nc1ccc(OC)cc1OC (stereo not drawn) | N
C/C(=N\Nc1nncc2ccccc12)c1ccc(Cl)c([N+](=O)[O-])c1 | N
Cc1nc([N+](=O)[O-])cn1CC(=O)Nc1ccc(Cl)cc1 | N
CCCn1c(C2CCCN2c2nc(-c3ccc(C)cc3)cs2)nc2cc(Cl)c(N3CCCCC3)cc21 (stereo not drawn) | N
CC1CC2=C(CC1/C=N/NC(N)=S)C(C)(C)CCC2 (stereo not drawn) | Y
COc1cccc(CNC(=O)C2CCCN(c3ncnc4c3nc3n4CCCCC3)C2)c1 (stereo not drawn) | N
O=C(Nc1sc2c(c1C(=O)O)CCC2)c1ccccc1F | N
CCOc1ccc(CN2CCN(Cc3ccc4cc(F)ccc4n3)CC2CCO)cc1 (stereo not drawn) | N
Cc1ccc(S(=O)(=O)N2CCOCC2)cc1C(=O)NCc1ccc(F)cc1 | N
CCc1ccc(N(CC(=O)Nc2sc3c(c2C(=O)OC)CCCC3)S(C)(=O)=O)cc1 | N
CN(C)S(=O)(=O)c1cccc(C(=O)OCC(=O)N2CCCC2=O)c1 | N
CCOC(=O)c1c(C)[nH]c2c1-c1ccccc1C(=O)C2=O | Y

* * *

PROCEDURE_TEXT: VP16 counterscreen qHTS for inhibitors of ROR gamma transcriptional activity;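 further: Gal4-VP16 expression switched on by copper sulfate through the metallothionein promoter; nearly all actives have a fitted effect of over 50% in size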; further: potency means the concentration at half of the fitted maximal effect
CONDITION_DETAILS: Drosophila S2 Gal4-VP16 UAS-luciferase, luminescence, 20 h; series mostly up to 53.6 µM
Screen size: about 310,000 compounds; about 11,000 (3.5%) were called active. Roughly 8% stayed inconclusive and do not appear here. Many of the other results were omitted from the sample, so actives are more common in it than they were.
ENDPOINT_LABEL: Potency

COMPOUND | OBS_VALUE
S=c1[nH]nc(-c2cccs2)n1/N=C/c1cccs1 | inactive
COc1cc(-n2c(C)nc3cc(C(=O)NCc4ccco4)ccc32)cc(OC)c1OC | inactive
Cc1cccc(N=C2NN=C(c3c[nH]c4ccccc34)CS2)c1 | 7.94 µM (active)
COc1cccc(-c2cccc(NC(=O)C3CCN(C4CCC4)CC3)c2)c1 | inactive
COc1cc2c(cc1OC)CN(CC(=O)Nc1ccc(F)cc1)CC2 | inactive
S=c1[nH]nc(-c2cc(-c3ccsc3)n[nH]2)n1-c1ccccc1 | inactive
O=C(NCCc1c[nH]c2ccccc12)C1CCN(Cc2ccc(Br)cc2)CC1 | inactive
COc1ccc(CCNC(=O)CSCc2ccc(Br)cc2)cc1OC | inactive
COc1ccc(CNS(=O)(=O)c2ccc(-c3cnc(C4CC4)o3)cc2)cc1 | inactive
COc1cccc2sc(NNC(=O)c3nc4ccccc4s3)nc12 | 2 µM (active)
O=C(/C=C/c1ccco1)Nc1cccc(-c2nc3ccccc3[nH]2)c1 | inactive
O=C(c1cc(COc2ccc(F)c(F)c2)on1)N1CCOCC1 | inactive
CCOC(=O)c1ccccc1NC(=O)CSc1nc2ccccc2c(=O)[nH]1 | inactive
O=C(N/C(=C/c1ccc(Cl)cc1)C(=O)N1CCCCC1)c1ccco1 | inactive
Cc1ccc(/C=N\n2c(-c3ccccc3)n[nH]c2=S)s1 | 8.91 µM (active)
COc1ccccc1-c1nc(SC)n[nH]1 | inactive
COc1ccc(S(=O)(=O)N2CCOCC2)cc1C(=O)Nc1nc2ccccc2s1 | inactive
COc1cccc(/C=N/NC(=O)c2[nH]nc3c2CCc2ccccc2-3)c1O | 0.794 µM (active)
O=C1C=CC(=O)N1c1ccc(N2CCCCC2)cc1 | 8.91 µM (active)
O=c1[nH][nH]c(=O)c2cc(N3CCCC3)ccc12 | inactive
CC(C)(C)SCCSC1=CC(=O)CC(c2ccccc2)C1 (stereo not drawn) | inactive
Cc1ccnc(NS(=O)(=O)c2ccc(NC(=O)c3oc4ccc(F)cc4c3C)cc2)n1 | inactive
CCOC(=O)c1cc2c(nc1NC(=S)Nc1ccccc1)CC(C)(CC)OC2 (stereo not drawn) | 7.94 µM (active)

* * *

PROCEDURE_TEXT: VP16 counterscreen qHTS for inhibitors of ROR gamma transcriptional activity;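 further: Gal4-VP16 expression switched on by copper sulfate through the metallothionein promoter; nearly all actives have a fitted effect of over 50% in size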
CONDITION_DETAILS: Drosophila S2 Gal4-VP16 UAS-luciferase, luminescence, 20 h; series mostly up to 53.6 µM
Screen size: about 310,000 compounds; about 11,000 (3.5%) were called active. Not shown: some 8% with an inconclusive outcome. Calls follow the shape of the dose curve; as a rule, active = well fitted inhibition curve with a large enough effect; inconclusive = small, poorly fitted or top-dose-only effect, or effect the other way; inactive = flat fitted curve, though single readings scatter. The sample as a whole holds a higher share of actives than the screen did.
Outcomes: T = active, F = inactive

COMPOUND | CATEGORY
CCN(CC(=O)Nc1ccc(C)c(S(=O)(=O)N(C)C)c1)Cc1ccccc1 | F
CC(=O)Nc1nc2ccccc2n1Cc1ccc(C)cc1 | T
CCOc1ccc(/C=N\NC(=O)c2c(C)nc3cc(C)ccn23)cc1 | F
CNC[C@H](CC1CCCCC1)NC[C@H](NCCC1CCCC1)[C@H](C)O | F
N#C/C(C(=O)N1CCOCC1)=C1/SC(Cc2ccc(F)cc2)C(=O)N1c1ccccc1 (stereo not drawn) | F
Cc1ccc(Cn2c(NC(=O)c3ccco3)nc3ccccc32)cc1 | T
NS(=O)(=O)c1ccc(CCNC(=S)Nc2ccc(S(N)(=O)=O)cc2)cc1 | F
Cc1ccccc1NC(=O)c1ccccc1NS(=O)(=O)c1cccc2cccnc12 | F
CCc1ccc(NC(=O)CN2CCC(C(=O)c3ccc(OC)cc3)CC2)cc1 | F
CCc1ccc(NC(=O)CS(=O)CC(=O)NCCCc2ccccc2)cc1 (stereo not drawn) | F
O=C(O)c1ccc2c(=O)n3c(nc2c1)/C(=C/c1ccc(OC(F)F)cc1OC(F)F)CC3 | F
O=C(COc1ccc(Br)cc1F)NC1CCN(Cc2ccccc2)CC1 | F
Cn1c(=O)c(=O)n(C)c2cc(S(=O)(=O)CCC(=O)N3CCCCC3)ccc21 | F
S=C(NCCC1=CCCCC1)Nc1ccccc1 | T
CCn1nc(NC(=O)c2ccco2)c2cc3ccc(C)cc3nc21 | F
S=C(Nc1ccc(Br)cc1)NC1CCN(Cc2ccccc2)CC1 | T
NC(=S)N/N=C/c1ccc([N+](=O)[O-])cc1 | F
S=C(NCCc1ccccc1)Nc1ccccc1 | T
CC(=O)c1nc2ccccc2n1Cc1ccccc1 | F
O=[N+]([O-])c1cccc2ncccc12 | F
Oc1ccccc1C1=NN(c2ccccc2)C(c2ccccc2)C1 (stereo not drawn) | F
COC(=O)c1c(NC(=O)c2ccccc2F)sc2c1C(C(=O)OC)CC2 (stereo not drawn) | F
COc1ccc(C2/C=C\CN(Cc3ccco3)C(C)C(=O)N2Cc2ccc(F)cc2)cc1 (stereo not drawn) | F

* * *

PROCEDURE_TEXT: VP16 counterscreen qHTS for inhibitors of ROR gamma transcriptional activity;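 further: Gal4-VP16 expression switched on by copper sulfate through the metallothionein promoter; nearly all actives have a fitted effect of over 50% in size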
CONDITION_DETAILS: Drosophila S2 Gal4-VP16 UAS-luciferase, luminescence, 20 h; series mostly up to 53.6 µM
Method: NIH Molecular Libraries Probe Production Network [MLPCN] NIH Chemical Genomics Center [NCGC] Assay Provider: Dan Littman, New York University […] For screening, 600 cells in 4 uL/well were dispensed into white solid 1536-well plates (Grenier) using a solenoid-based dispenser. […] After addition of 1.5 uL Photinus luciferase detection reagent, the plates were incubated 10 min at ambient temperature and then read by a ViewLux (Perkin Elmer) to detect luminescence.
The campaign covered roughly 310,000 compounds. About 11,000 (3.5%) were called active. Inconclusive results (about 8%) are left out. The call rests on the fitted dose curve; in most records, active means well fitted inhibition curve with a large enough effect; inconclusive means small, poorly fitted or top-dose-only effect, or effect the other way; inactive means flat fitted curve, though single readings scatter. Shown is part of a subset that was picked to be rich in actives.
Outcome codes: active, inactive

MOLECULE | CATEGORY
Cc1cccc(NC(=O)NC(=S)NC(=O)c2ccccc2)c1 | active
O=C(COc1nsnc1N1CCOCC1)Nc1ccccc1Cl | inactive
COc1ccc(-c2cn3ccc(C)cc3n2)cc1 | active
COc1ccc(NC(=O)C2CCC(CNC(=O)[C@@H]3Cc4ccccc4CN3)CC2)cc1 (stereo partly specified) | inactive
CCN(CC)CCCNC(=O)COc1ccc2oc3c(c2c1)CCCC3 | inactive
O=C(CC1C(=O)NCCN1C(=O)c1ccc([N+](=O)[O-])cc1)Nc1cccc(Cl)c1 (stereo unspecified) | inactive
Cc1cccc(NC(=S)NC(=O)c2ccc(Br)o2)c1 | inactive
CCn1c(=O)c2ccccc2n(CC(=O)N2CCCc3ccccc32)c1=O | inactive
O=S(=O)(Nc1cccc(-n2cnnn2)c1)c1cnc(Cl)c(Cl)c1 | inactive
Cc1ccc(NC(=O)NC(=O)c2ccccc2)cc1F | inactive
COc1ccc(-c2cn3cccnc3n2)cc1 | inactive
